Each entry below carries its reported Cell Viability, % of Control, MCF-7.
system: breast MCF-7 cancer cells; assay: Cytotoxic activity (MTT assay); assay type: cell-based, human; conditions: 100 µM, 24 h, MTT

// query Report Cell Viability, % of Control, MCF-7 for CC1(O)CCC2C(C=CC(C)(O)C2C(=O)CCO)C1 (stereo not shown) [Compound 4, 8-hydroxyzosteropenilline G]
// result 81.92 ± 3.92 % of Control

// query Using the record for CC(=O)C1C2CCC(C)C(O)C2C=CC1(C)O (stereo not shown) [Compound 7, zosteropenilline Q] , state its measured Cell Viability, % of Control, MCF-7.
// result 76.23 ± 4.53 % of Control

// query Tell us which Cell Viability, % of Control, MCF-7 value is on record for C[C@H]1CC[C@H]2C(=C[C@@H](O)[C@@](C)(O)[C@@H]2C(=O)CCO)C1 [Compound 9, zosteropenilline R]
// result 79.64 ± 1.67 % of Control

// query Fill in reported Cell Viability, % of Control, MCF-7 for this entry: CC(=O)[C@@H]1[C@H]2CC[C@H](CO)C[C@@H]2C=C[C@@]1(C)O [Compound 6, zosteropenilline P]
// result 82.05 ± 1.31 % of Control

// query Complete the entry with Cell Viability, % of Control, MCF-7 for CC1=C[C@H](O)[C@H]2C[C@@H](C)CC[C@@H]2[C@H]1C(=O)CCO [Compound 1, zosteropenilline M]
// result 86.42 ± 1.76 % of Control

// query Give the reported Cell Viability, % of Control, MCF-7 for this molecule. CC1=CC(O)C2CC(C)(O)CCC2C1C(=O)CCO (stereo not drawn) [Compound 2, 11-epi-8-hydroxyzosteropenilline M]
// result 57.46 ± 1.82 % of Control

Okay, next one:
// query Tell me Cell Viability, % of Control, MCF-7 reported for C[C@H]1CC[C@@H]2[C@@H](C(=O)CCO)[C@](C)(O)C=C[C@H]2C1 [Compound 11, zosteropenilline G]
// result 81.00 ± 2.38 % of Control
